target-entity: human muscarinic M3 receptor (Homo sapiens, UniProt P20309)
Construct: expressed in transfected cells
Sequence (P20309 whole entry): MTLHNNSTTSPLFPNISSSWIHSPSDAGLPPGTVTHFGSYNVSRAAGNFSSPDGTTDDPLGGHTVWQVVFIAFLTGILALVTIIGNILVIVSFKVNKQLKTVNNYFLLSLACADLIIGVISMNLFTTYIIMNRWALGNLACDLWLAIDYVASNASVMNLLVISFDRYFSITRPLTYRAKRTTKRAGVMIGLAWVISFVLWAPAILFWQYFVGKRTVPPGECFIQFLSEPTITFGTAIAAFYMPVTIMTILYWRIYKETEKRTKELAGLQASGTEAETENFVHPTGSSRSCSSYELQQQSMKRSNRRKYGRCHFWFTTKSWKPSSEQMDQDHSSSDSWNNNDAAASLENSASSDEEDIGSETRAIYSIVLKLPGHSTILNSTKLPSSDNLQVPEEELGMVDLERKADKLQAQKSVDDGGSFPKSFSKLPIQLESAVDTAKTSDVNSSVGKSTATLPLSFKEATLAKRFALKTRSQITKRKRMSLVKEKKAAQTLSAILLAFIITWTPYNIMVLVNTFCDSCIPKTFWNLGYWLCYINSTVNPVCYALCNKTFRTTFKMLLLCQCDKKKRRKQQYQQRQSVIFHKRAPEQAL
protocol-notes: hM3 β-Lac potency assay (cell based β-lactamase)
applied-conditions: CHO cells expressing human M3 receptor, NFAT β-lactamase reporter; inhibition of 80 nM carbamyl choline signal, 4 h; IC50 converted to Ki by Cheng-Prusoff; read-out: Cell based β-lactamase M3 Ki
Label T when Ki is strictly below 2 nM; otherwise label F.

Solved entries (count: 8):
- compound: "COc1cc(F)cc(O[C@@H]2CCN(C(C)(C)CCC(C(N)=O)(c3ccccc3)c3ccccc3)C2)c1 [Example 73]"
  label: "T"
- compound: "CC(C)(CCC(C(N)=O)(c1ccccc1)c1ccccc1)N1CC[C@H](OCc2cccc(-c3ccccc3O)c2)C1 [Example 64]"
  label: "F"
- compound: "CC(C)(CCC(C(N)=O)(c1ccccc1)c1ccccc1)N1CC[C@H](OCc2cccc(-c3ccccc3)c2)C1 [Example 66]"
  label: "F"
- compound: "CC(C)(CCC(C(N)=O)(c1ccccc1)c1ccccc1)N1CC[C@H](Oc2cc(O)c(Cl)cc2Cl)C1 [Example 31]"
  label: "F"
- compound: "CC(C)(CCC(C(N)=O)(c1ccccc1)c1ccccc1)N1CC[C@H](Oc2cccc(O)c2F)C1 [Example 53]"
  label: "T"
- compound: "CC(C)(CCC(C(N)=O)(c1ccccc1)c1ccccc1)N1CC[C@H](Oc2cc(O)cc(Cl)c2)C1 [Example 34]"
  label: "F"
- compound: "CC(C)(CCC(C(N)=O)(c1ccccc1)c1ccccc1)N1CC[C@H](Oc2cccc(Br)c2)C1 [Example 17]"
  label: "F"
- compound: "COc1ccc(C#N)c(O[C@H]2CCN(C(C)(C)CCC(C(N)=O)(c3ccccc3)c3ccccc3)C2)c1 [Example 69]"
  label: "F"

INPUT: Check if Ki falls below 2 nM for CC(C)(CCC(C(N)=O)(c1ccccc1)c1ccccc1)N1CC[C@@H](Oc2cccc(O)c2F)C1 [Example 76] .
OUTPUT: T

INPUT: Bench note: check whether CC(C)(CCC(C(N)=O)(c1ccccc1)c1ccccc1)N1CC(OCc2c(Cl)ccc(O)c2Cl)C1 [Example 128] shows Ki below 2 nM
OUTPUT: F

INPUT: # strict comparison: is reported Ki < 2 nM? input = CC(C)(CCC(C(N)=O)(c1ccccc1)c1ccccc1)N1CC(Oc2cc(O)cc(Cl)c2)C1 [Example 124]
OUTPUT: T

INPUT: # check: Ki < 2 nM for COc1c(Cl)cccc1O[C@@H]1CCN(C(C)(C)CCC(C(N)=O)(c2ccccc2)c2ccccc2)C1 [Example 42]
OUTPUT: F

INPUT: Determine whether this compound shows Ki lower than 2 nM (ties excluded): CC(C)(CCC(C(N)=O)(c1ccccc1)c1ccccc1)N1CC[C@H](Oc2ccc(C(F)(F)F)cc2)C1 [Example 24]
OUTPUT: F

INPUT: Given the entry CC(C)(CCC(C(N)=O)(c1ccccc1)c1ccccc1)N1CC[C@H](Oc2cc(O)ccc2Cl)C1 [Example 40] , would its reported Ki be below 2 nM?
OUTPUT: F

* * *

target-entity: human muscarinic M3 receptor (Homo sapiens)
Construct: expressed in transfected cells
protocol-notes: hM3 β-Lac potency assay (cell based β-lactamase)
applied-conditions: CHO cells expressing human M3 receptor, NFAT β-lactamase reporter; inhibition of 80 nM carbamyl choline signal, 4 h; IC50 converted to Ki by Cheng-Prusoff; read-out: Cell based β-lactamase M3 Ki
# strict inequality: Ki < 10 nM yields Fulfilled, everything else yields Not fulfilled

- compound-structure: "CC(C)(CCC(C(N)=O)(c1ccccc1)c1ccccc1)N1CC[C@@H](Oc2ccc(C(F)(F)F)cc2)C1"
  target-entity: "human muscarinic M3 receptor (Homo sapiens)"
  label: "Fulfilled"
- compound-structure: "NC(=O)C(CCC1(N2CC(Oc3ccc(Cl)c(O)c3)C2)CCCC1)(c1ccccc1)c1ccccc1"
  target-entity: "human muscarinic M3 receptor (Homo sapiens)"
  label: "Fulfilled"
- compound-structure: "CC(C)(CCC(C(N)=O)(c1ccccc1)c1ccccc1)N1CC[C@H](Oc2ccc(F)c(O)c2)C1"
  target-entity: "human muscarinic M3 receptor (Homo sapiens)"
  label: "Fulfilled"

INPUT: Strictly below 10 nM: is that where Ki of `CC(C)(CCC(C(N)=O)(c1ccccc1)c1ccccc1)N1CC[C@@H](Oc2cc(O)cc(C(F)(F)F)c2)C1` sits?
OUTPUT: Not fulfilled

INPUT: Please determine if `CC(C)(CCC(C(N)=O)(c1ccccc1)c1ccccc1)N1CC(Oc2ccccc2O)C1` is below 10 nM in terms of Ki.
OUTPUT: Not fulfilled

INPUT: Identify whether the compound `CC(C)(CCC(C(N)=O)(c1ccccc1)c1ccccc1)N1CC(Oc2ccccc2)C1` records Ki below 10 nM.
OUTPUT: Fulfilled

INPUT: Check if Ki falls below 10 nM for `CC(C)(CCC(C(N)=O)(c1ccccc1)c1ccccc1)N1CC[C@H](Oc2ccc(-c3ccccc3)cc2)C1` .
OUTPUT: Not fulfilled
